test: Equilibrium solubility by shake-flask method (SFM); format: physicochemical; details: aqueous buffer, thermodynamic from solid; water, NS and PBS; shake-flask, pH 8.5, 25 °C; read-out: aqueous solubility
Square brackets hold non-standard residues; d marks the D form. Peptide text beside a SMILES is read from it. * marks the point of attachment. X1 = OC[C@H]1O[C@@H](O[C@H]2[C@H](O)[C@@H](O)[C@H](*)O[C@@H]2CO)[C@H](O)[C@@H](O)[C@H]1O
value_type: solubility thermodynamic at 24 h

What does the record list as solubility thermodynamic at 24 h for CC(C)C[C@H](NC(=O)[C@H](Cc1ccccc1)NC(=O)CNC(=O)[C@H](NC(=O)[C@@H](N)Cc1ccc(O)cc1)[C@H](C)O)C(=O)N[C@@H](CO[C@@H]1O[C@H](CO)[C@@H](O[C@@H]2O[C@H](CO)[C@H](O)[C@H](O)[C@H]2O)[C@H](O)[C@H]1O)C(N)=O [Lactomorphin] (H-Y[dT]GFLS(X1)-NH2) ? > 100 mg/mL

====

experiment: Equilibrium solubility by shake-flask method (SFM); type: physicochemical; details: pH 8.5, thermodynamic from solid; thermodynamic shake-flask, excess solid raw Lactomorphin, purified water, pH 8.50 (adjusted with 0.1 M NaOH/HCl), shaken 24 h, 25 °C, sedimentation, HPLC-UV 280 nm; mean ± SD, n = 3; read-out: Solubility in Water
Square brackets hold non-standard residues; d marks the D form. Peptide text beside a SMILES is read from it. * marks the point of attachment. X1 = OC[C@H]1O[C@@H](O[C@H]2[C@H](O)[C@@H](O)[C@H](*)O[C@@H]2CO)[C@H](O)[C@@H](O)[C@H]1O
value_type: solubility thermodynamic at 24 h (mg/mL)
Give the number; mg/mL is assumed, so skip it.

What does the record list as solubility thermodynamic at 24 h for CC(C)C[C@H](NC(=O)[C@H](Cc1ccccc1)NC(=O)CNC(=O)[C@H](NC(=O)[C@@H](N)Cc1ccc(O)cc1)[C@H](C)O)C(=O)N[C@@H](CO[C@@H]1O[C@H](CO)[C@@H](O[C@@H]2O[C@H](CO)[C@H](O)[C@H](O)[C@H]2O)[C@H](O)[C@H]1O)C(N)=O [Lactomorphin] (H-Y[dT]GFLS(X1)-NH2) ? 267
